Documented pEC50 across a set of molecules
Molecular target: LXRβ full length (FL) (Homo sapiens, UniProt P55055, INS174Q)
Construct: the full length (FL) proteins of LXRα (amino acids 1-447); NP005684; NP009052
Sequence (P55055 with tags, fused parts or gaps INS174Q): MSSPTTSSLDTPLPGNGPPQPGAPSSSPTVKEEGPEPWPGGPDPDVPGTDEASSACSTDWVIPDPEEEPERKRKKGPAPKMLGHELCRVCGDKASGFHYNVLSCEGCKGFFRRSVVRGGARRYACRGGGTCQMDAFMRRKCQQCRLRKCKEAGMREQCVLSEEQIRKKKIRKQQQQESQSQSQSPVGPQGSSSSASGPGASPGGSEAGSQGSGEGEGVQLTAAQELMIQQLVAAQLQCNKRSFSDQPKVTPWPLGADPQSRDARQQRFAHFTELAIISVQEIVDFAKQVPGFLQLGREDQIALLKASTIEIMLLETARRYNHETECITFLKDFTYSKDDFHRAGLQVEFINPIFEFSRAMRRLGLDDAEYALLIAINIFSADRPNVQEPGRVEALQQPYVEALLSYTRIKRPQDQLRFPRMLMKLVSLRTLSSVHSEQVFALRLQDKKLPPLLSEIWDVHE
Test: LXR Gal4 reporter transient transfection assay, mammalian two-hybrid, FL-M2H Gal4β
Details: HEK293 cells; inverse agonist unless *
pEC50: −log10 of the molar value.
result type: pEC50

| molecule | recorded value |
| --- | --- |
| Cc1ccc2ccccc2c1C(=O)N(Cc1ccc(-c2cccc(C(C)(O)C(=O)O)c2)cc1)Cc1ccc(C(F)(F)F)o1 (stereo not shown) [27/10] | > 7.00 |
| Cc1ccc2ccccc2c1C(=O)N(Cc1ccc(-c2cccc(C(C)(N)C(=O)O)c2)cc1)Cc1ccc(C(F)(F)F)o1 (stereo not shown) [27/74] | > 7.00 |
| N#Cc1ccc2ccccc2c1CN(Cc1ccc(-c2cccc(S(=O)(=O)CC(=O)O)c2)cc1)Cc1ccc(C(F)(F)F)o1 [7/7] | 6.00 to 7.00 |
| Cc1ccc2c(CN(Cc3ccc(-c4cccc(C(C)(C)C(=O)O)c4)cc3)Cc3ccc(C(F)(F)F)o3)c(C)ccc2c1 [27/21] | > 7.00 |
| COc1cc(-c2cncc(S(=O)(=O)CC(=O)O)c2)ccc1CN(Cc1ccc(C(F)(F)F)o1)C(=O)c1c(C)ccc2ccccc12 [27/60] | 6.00 to 7.00 |
| Cc1cc(C)c([N+](=O)[O-])c(C)c1C(=O)N(Cc1ccc(-c2cccc(C(C)(C)C(=O)O)c2)cc1)Cc1ccc(C(F)(F)F)o1 [27/46] | > 7.00 |
| Cc1cc(C)c(CN(Cc2ccc(-c3cccc(S(=O)(=O)CC(=O)O)c3)cc2)Cc2cccc(C(F)(F)F)c2)c(C)c1 [7/14] | 6.00 to 7.00 |

----------
Assay: Short term HFD mouse model: liver and plasma exposure after multiple oral dosing
Assay type: in vivo, mice (C57BL/6J)
Settings: C57BL/6J, liver, HFD mice, three oral doses of 20 mg/kg each, 4 h after final dose, read-out: liver exposure, 4 h
// values below are reported log10(concentration at 4 h)
result type: log10(concentration at 4 h) (log10 of the value in µM)

| chemical string | log10(concentration at 4 h) |
| --- | --- |
| Cc1ccc2ccccc2c1C(=O)N(Cc1ccc(-c2cccc(S(=O)(=O)CC(=O)O)c2)cc1)Cc1ccc(C(F)(F)F)o1 | 1.26 |
| Cc1ccc2ccccc2c1C(=O)N(Cc1ccc(C(F)(F)F)o1)Cc1ccc(-c2cccc(C(C)(C)C(=O)O)c2)cc1C#N | 1.17 |
| CC(C)(C(=O)O)c1cccc(-c2ccc(CN(Cc3ccc(C(F)(F)F)o3)C(=O)c3c4ccccc4cc4ccccc34)cc2)c1 | 1.58 |
| Cc1ccc2ccccc2c1C(=O)N(Cc1ccc(-c2cc(F)c(CO)c(S(=O)(=O)CC(=O)O)c2)cc1)Cc1ccc(C(F)(F)F)o1 | 0.45 |
| Cc1ccc2ccccc2c1CN(Cc1ccc(-c2cccc(C(C)(C)C(=O)O)c2)cc1)Cc1ccc(C(F)(F)F)o1 | 0.95 |
| Cc1ccc2ccccc2c1C(=O)N(Cc1ccc(-c2cccc(C(C)(C)C(=O)O)c2)cc1)Cc1ccc(C#N)o1 | 1.57 |
| CCOC(=O)c1ccc(CN(Cc2ccc(-c3cccc(C(C)(C)C(=O)O)c3)cc2)C(=O)c2c(C)ccc3ccccc23)o1 | 1.14 |
| CCc1nc2ccccc2c(C(=O)N(Cc2ccc(-c3cccc(C(C)(C)C(=O)O)c3)cc2)Cc2ccc(C(F)(F)F)o2)c1C | 1.65 |
| Cc1ccc2ccccc2c1C(=O)N(Cc1ccc(-c2cccc(C(C)(C)C(=O)O)c2)cc1)Cc1ccc(C(F)(F)F)o1 | 1.65 |

----------
This section presents compounds with their documented EC50 values.
Molecular target: GST-LXRβ ligand-binding domain (Homo sapiens, UniProt P55055, INS174Q)
Construct: amino acids 156-461; NP009052
Sequence (P55055 with tags, fused parts or gaps INS174Q limits assumed): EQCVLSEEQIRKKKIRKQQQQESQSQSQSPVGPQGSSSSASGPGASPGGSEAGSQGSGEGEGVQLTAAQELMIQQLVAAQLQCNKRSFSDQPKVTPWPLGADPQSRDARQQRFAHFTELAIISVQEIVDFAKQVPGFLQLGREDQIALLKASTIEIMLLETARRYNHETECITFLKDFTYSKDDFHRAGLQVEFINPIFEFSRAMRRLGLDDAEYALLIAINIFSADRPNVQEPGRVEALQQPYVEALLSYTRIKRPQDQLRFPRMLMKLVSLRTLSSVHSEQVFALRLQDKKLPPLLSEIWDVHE
Experiment: TR-FRETβ activity assay (NCoA3 coactivator peptide recruitment)
Conditions: 1 μM 24(S)-25-epoxycholesterol as prestimulating agonist; inverse agonist unless *

| chemical string | EC50 |
| --- | --- |
| Cc1ccc2ncccc2c1CN(Cc1ccc(-c2cccc(C(C)(C)C(=O)O)c2)cc1)Cc1ccc(C(F)(F)F)o1 | 0.1 to 1 µM |
| Cc1nc2cccnc2c(C(=O)N(Cc2ccc(-c3cccc(C(C)(C)C(=O)O)c3)cc2)Cc2cncc(C(F)(F)F)c2)c1C | 0.1 to 1 µM |
| Cc1ccc2ccccc2c1CN(Cc1ccc(-c2cccc([C@H](C)C(=O)O)c2)cc1)Cc1ccc(C(F)(F)F)o1 | 0.1 to 1 µM |
| COc1cc(-c2cccc(C(C)(C)C(=O)O)c2)ccc1CN(Cc1ccc(C(F)(F)F)o1)C(=O)c1c(C)c(C)nc2cccnc12 | 0.1 to 1 µM |
| Cc1nc2ccccc2c(C(=O)N(Cc2ccc(-c3cccc(C(C)(C)C(=O)O)c3)cc2)Cc2ccc(C(F)(F)F)o2)c1C | 0.1 to 1 µM |
| CN(C)c1ncc(CN(Cc2ccc(-c3cccc(C(C)(C)C(=O)O)c3)cc2)Cc2ccc(C(F)(F)F)o2)c2ccccc12 | 0.1 to 1 µM |
| Cc1ccc2ccccc2c1CN(Cc1ccc(C(F)(F)F)o1)Cc1cnc(-c2cccc(C(C)(C)C(=O)O)c2)s1 | 1 to 10 µM |

----------
# maps each entry to its EC50
Biological target: GST-LXRβ ligand-binding domain (Homo sapiens, UniProt P55055, INS174Q)
Construct: amino acids 156-461; NP009052
Sequence (P55055 with tags, fused parts or gaps INS174Q limits assumed): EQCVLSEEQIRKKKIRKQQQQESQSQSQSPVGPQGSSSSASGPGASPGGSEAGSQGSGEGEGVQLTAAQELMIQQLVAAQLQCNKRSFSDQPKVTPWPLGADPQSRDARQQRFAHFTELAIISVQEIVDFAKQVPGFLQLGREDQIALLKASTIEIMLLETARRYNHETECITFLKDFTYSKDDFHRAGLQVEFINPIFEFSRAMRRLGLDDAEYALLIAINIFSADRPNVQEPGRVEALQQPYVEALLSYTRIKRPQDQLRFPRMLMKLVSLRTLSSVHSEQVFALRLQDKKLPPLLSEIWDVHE
Assay: TR-FRETβ activity assay (NCoA3 coactivator peptide recruitment)
Conditions: 1 μM 24(S)-25-epoxycholesterol as prestimulating agonist; inverse agonist unless *
result type: EC50

| compound | recorded value |
| --- | --- |
| Cc1nc2cccnn2c1C(=O)N(Cc1ccc(-c2cccc(C(C)(C)C(=O)O)c2)cc1)Cc1ccc(C(F)(F)F)o1 | 1000 to 10000 nM |
| COc1cc(-c2cc(F)c(CO)c(S(=O)(=O)CC(=O)O)c2)ccc1CN(Cc1ccc(C(F)(F)F)o1)Cc1c(C)ccc2ccccc12 | 1000 to 10000 nM |
| CCc1nc2cnccc2c(C(=O)N(Cc2ccc(-c3cccc(C(C)(C)C(=O)O)c3)cc2)Cc2ccc(C(F)(F)F)o2)c1C | 100 to 1000 nM |
| COc1cc(-c2cncc(S(=O)(=O)CC(=O)O)c2)ccc1CN(Cc1ccc(C(F)(F)F)o1)C(=O)c1c(C)ccc2ccccc12 | 1000 to 10000 nM |
| O=C(O)CS(=O)(=O)c1cccc(-c2ccc(CN(Cc3ccc(C(F)(F)F)o3)C3CCc4cccc5cccc3c45)cc2)c1 (centres unmarked) | > 10000 nM |
| CC(C)(C(=O)O)c1cccc(-c2ccc(CN(Cc3ccc(C(F)(F)F)o3)Cc3cccc4c3CCOC4)cc2)c1 | 100 to 1000 nM |
| Cc1ccc2ccccc2c1C(=O)N(Cc1ccc(C(F)(F)F)o1)Cc1ccc(-c2cccc(C(C)(C)C(=O)O)c2)cc1C#N | < 100 nM |
| Cc1ccc2ccc(C(N)=O)cc2c1CN(Cc1ccc(-c2cccc(C(C)(C)C(=O)O)c2)cc1)Cc1ccc(C(F)(F)F)o1 | 1000 to 10000 nM |
| COC(=O)CS(=O)(=O)c1cc(-c2ccc(CN(Cc3ccc(C(F)(F)F)o3)Cc3c(C)cc(C)cc3C)cc2)cc(F)c1CO | 100 to 1000 nM |
| CCc1cc(C)c(CN(Cc2ccc(-c3cccc(C(C)(C)C(=O)O)c3)cc2)Cc2ccc(C(F)(F)F)o2)c(C)c1 | < 100 nM |
| Cc1cc(C)c(CN(Cc2ccc(-c3cc(F)c(CF)c(S(=O)(=O)CC(=O)O)c3)cc2)Cc2ccc(C(F)(F)F)o2)c(C)c1 | 1000 to 10000 nM |
| Cc1nc2cccnc2c(C(=O)N(Cc2ccc(-c3cccc(C(C)(C)C(=O)O)c3)cc2)Cc2ccc(C(F)F)o2)c1C | 100 to 1000 nM |
| CC(C)(C(=O)O)c1cccc(-c2ccc(CN(Cc3ccc(C(F)(F)F)o3)C(=O)c3cccn4nccc34)cc2)c1 | 100 to 1000 nM |
| CC(C)(C(=O)O)c1cccc(-c2ccc(CN(Cc3ccc(C(F)(F)F)o3)C(=O)c3cccc4ncncc34)cc2)c1 | 1000 to 10000 nM |
